Parameter: pKi. Scope: all listed entries.
Biological target: cIAP1-BIR3 (Homo sapiens)
Sequence (Q13490 257-356): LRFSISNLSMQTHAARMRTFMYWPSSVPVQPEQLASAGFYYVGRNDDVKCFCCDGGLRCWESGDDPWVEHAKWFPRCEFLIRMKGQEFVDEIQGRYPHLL
Assay: FP competition assay, displacement of SMAC-rhodamine
Details: cIAP1 BIR3 Ki, 25 mM Hepes pH 7.5, 1 mM TCEP, 0.005% Tween 20, 20 nM SMAC-rhodamine, 40 mM β-glycerol phosphate, ~50 nM protein; Ki calculated from IC50
On this scale, pKi is minus log10 of a concentration expressed in M (mol/L).

Worked set:
CN[C@@H](C)C(=O)N[C@@H](CC(C)C)C(=O)N1CCC[C@H]1C(=O)N[C@@H]1CCCc2ccccc21; 7.22
CC(C)[C@H](NC(=O)[C@H](C)N)C(=O)N[C@@H](C)C(=O)Nc1cccc2ccccc12; 5.91
CC[C@H](NC(=O)[C@H](C)NC)C(=O)N1CCC[C@H]1C(=O)N[C@@H]1CCCc2ccccc21; 7.22
CC(C)[C@H](NC(=O)[C@H](C)N)C(=O)N[C@@H](CCCNC(=O)OCc1ccccc1)C(=O)Nc1cccc2ccccc12; 6.07
CC[C@H](N)C(=O)N[C@H](C(=O)N[C@@H](C)C(=O)Nc1cccc2ccccc12)C(C)C; 5.32

Prompt: Any idea what pKi was measured for CC(C)[C@H](NC(=O)[C@@H](N)CO)C(=O)N[C@@H](C)C(=O)Nc1cccc2ccccc12 ?
Completion: 5.36

Prompt: Look up pKi: CN[C@@H](C)C(=O)N[C@H](C(=O)N[C@@H](CCCCNC(=O)OCc1ccccc1)C(=O)N[C@@H]1CCCc2ccccc21)C(C)C
Completion: 6.70

Prompt: Given the compound CN[C@@H](C)C(=O)N[C@H](C(=O)N[C@@H](CCCN=C(N)N)C(=O)NNc1ccccc1)C(C)C , what is its reported pKi?
Completion: 5.71

Prompt: I would be grateful if you could share the reported pKi for CN[C@@H](C)C(=O)N[C@H](C(=O)N1CCC[C@H]1C(=O)NNc1ccccc1)C(C)C .
Completion: 6.59

Prompt: Query: pKi; subject: CC[C@H](C)[C@H](NC(=O)[C@H](C)NC)C(=O)N1CCC[C@H]1C(=O)N[C@@H]1CCCc2ccccc21
Completion: 7.40

Prompt: Record request: pKi value, item CN[C@@H](C)C(=O)N[C@H](C(=O)N1CCC[C@H]1C(=O)N[C@@H]1CCCc2ccccc21)C(C)C
Completion: 7.70

Prompt: Query: pKi; subject: CN[C@@H](C)C(=O)N[C@@H](CCC(=O)O)C(=O)N[C@@H](C)C(=O)NNc1ccccc1
Completion: 4.96

Prompt: What pKi value was documented for this compound, CN[C@@H](C)C(=O)N[C@H](C(=O)N[C@@H](CCCNC(=O)OCc1ccccc1)C(=O)N[C@@H]1CCCc2ccccc21)C(C)C ?
Completion: 6.55

* * *

Catalogue of EC50 readings, one per entry.
Tested on: PC-3 prostate cancer cells
Assay: Cytotoxicity assay, sensitization to TNF (CellTiter-Glo)
Type: cell-based, human
Conditions: PC-3 cells, 10 nM TNF, 24 h, cell viability; read-out: TNF EC50
Number only, in nM; omit the unit.

CN[C@@H](C)C(=O)N[C@H](C(=O)N1CCC[C@H]1C(=O)Nc1ccc2ccccc2n1)C(C)C; 70
CN[C@@H](C)C(=O)N[C@H](C(=O)N1CCC[C@@H]1C(=O)N[C@H]1CCOc2ccccc21)C(C)C [compound 37, reference compound]; 30

Prompt: Record request: EC50 value, item CN[C@@H](C)C(=O)N[C@H](C(=O)N1CSC[C@@H]1C(=O)NC1CCCc2ccccc21)C(C)C (stereo partly drawn) [compound 38, reference compound]
Completion: 60

* * *

Molecular target: cIAP2-BIR2 (Homo sapiens, UniProt Q13489)
Sequence (Q13489 129-246): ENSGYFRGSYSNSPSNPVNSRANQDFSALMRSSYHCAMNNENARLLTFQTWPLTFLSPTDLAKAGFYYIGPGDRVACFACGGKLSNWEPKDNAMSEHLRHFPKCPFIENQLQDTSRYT
Test: FP competition assay, displacement of SMAC-rhodamine
pKi: −log10 of the molar value.
Entry flag: yes if pKi reaches 5; no if it does not.

Before answering, review these 2 worked examples.
CN[C@@H](C)C(=O)N[C@H](C(=O)N1CCC[C@H]1C(=O)NNc1ccccc1)C(C)C; yes
CC(C)[C@H](NC(=O)[C@H](C)N)C(=O)N[C@@H](C)C(=O)Nc1cccc2ccccc12; yes

Prompt: Identify whether the reported pKi of the following molecule is 5 or greater: CN[C@@H](C)C(=O)N[C@H](C(=O)N[C@@H](CCC(N)=O)C(=O)N[C@@H]1CCCc2ccccc21)C(C)C
Completion: yes

Prompt: Entry CC[C@H](N)C(=O)N[C@H](C(=O)N[C@@H](C)C(=O)Nc1cccc2ccccc12)C(C)C : is its pKi no less than 5?
Completion: no

Prompt: Does the reported pKi for CN[C@@H](C)C(=O)N[C@H](C(=O)N[C@@H](CCCNC(=O)OCc1ccccc1)C(=O)N[C@@H]1CCCc2ccccc21)C(C)C fall at or above the 5 mark?
Completion: yes

* * *

Molecular target: cIAP1-BIR2 (Homo sapiens)
Test: FP competition assay, displacement of SMAC-rhodamine
No end group written: not given here.
reported_metric: Ki (µM)
Please state the figure in µM; there is no need to write the unit.

Prompt: I would be grateful if you could share the reported Ki for AVPIAQK-NH2 [SMAC-7-mer, AVPIAQK, reference compound] .
Completion: 15.4

* * *

Target: cIAP2-BIR3 (Homo sapiens, UniProt Q13489)
Sequence (Q13489 243-333): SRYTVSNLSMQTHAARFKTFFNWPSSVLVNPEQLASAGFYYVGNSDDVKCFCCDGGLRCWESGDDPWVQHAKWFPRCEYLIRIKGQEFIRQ
Test: FP competition assay, displacement of SMAC-rhodamine
reported_metric: pKi
For clarity, pKi is expressed as the negative log10 of concentration in mol/L.

// below: answered molecules
CN[C@@H](C)C(=O)N[C@H](C(=O)N[C@@H](CCCCNC(=O)OCc1ccccc1)C(=O)N[C@@H]1CCCc2ccccc21)C(C)C [compound 12]; 6.30
CN[C@@H](C)C(=O)N[C@H](C(=O)N[C@@H](CCCNC(N)=N[N+](=O)[O-])C(=O)N[C@@H]1CCCc2ccccc21)C(C)C [compound 9]; 7.15
CN[C@@H](C)C(=O)N[C@H](C(=O)N[C@@H](CO)C(=O)N[C@@H]1CCCc2ccccc21)C(C)C [compound 14]; 6.52
CN[C@@H](C)C(=O)N[C@H](C(=O)N[C@@H](CCC(N)=O)C(=O)N[C@@H]1CCCc2ccccc21)C(C)C [compound 11]; 6.26
CN[C@@H](C)C(=O)N[C@H](C(=O)N[C@@H](C)C(=O)Nc1cccc2ccccc12)C(C)C [compound 15]; 5.29
CN[C@@H](C)C(=O)N[C@@H](CC(=O)OC)C(=O)N1CCC[C@H]1C(=O)N[C@@H]1CCCc2ccccc21 [compound 6]; 6.72

// moving on: another record for pKi
Prompt: Please look up its pKi: CC(C)[C@H](NC(=O)[C@H](C)N)C(=O)N1CCC[C@H]1C(=O)NNc1ccccc1 [compound 36]
Completion: 6.24

* * *

Target: cIAP1-BIR2 (Homo sapiens, UniProt Q13490)
Sequence (Q13490 144-260): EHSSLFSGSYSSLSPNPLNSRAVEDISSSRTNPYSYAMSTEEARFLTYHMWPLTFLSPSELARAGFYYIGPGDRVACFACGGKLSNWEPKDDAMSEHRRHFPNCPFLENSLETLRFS
Assay: FP competition assay, displacement of SMAC-rhodamine
reported_metric: Ki

These recorded examples may help you get a feel for the data.
CN[C@@H](C)C(=O)N[C@H](C(=O)N[C@@H](CCCNC(N)=N[N+](=O)[O-])C(=O)N[C@@H]1CCCc2ccccc21)C(C)C; 0.81 µM
CC(C)[C@H](NC(=O)[C@H](C)N)C(=O)N[C@@H](C)C(=O)Nc1cccc2ccccc12; 3.77 µM
CN[C@@H](C)C(=O)N[C@H](C(=O)N[C@@H](CCCCN)C(=O)NNc1ccccc1)C(C)C; 2.18 µM
CN[C@@H](C)C(=O)N[C@H](C(=O)N[C@@H](CCC(N)=O)C(=O)N[C@@H]1CCCc2ccccc21)C(C)C; 3.25 µM
CN[C@@H](C)C(=O)N[C@H](C(=O)N1CCC[C@H]1C(=O)N[C@@H]1CCCc2ccccc21)C(C)C; 0.84 µM
CN[C@@H](C)C(=O)N[C@H](C(=O)N[C@@H](C)C(=O)Nc1cccc2ccccc12)C(C)C; 8.96 µM
CN[C@@H](C)C(=O)N[C@H](C(=O)N1CCC[C@H]1C(=O)NNc1ccccc1)C(C)C; 3.62 µM
CN[C@@H](C)C(=O)N[C@@H](CC(=O)O)C(=O)N1CCC[C@H]1C(=O)N[C@@H]1CCCc2ccccc21; > 57.2 µM

Prompt: Short answer please: Ki, cIAP1-BIR2 (Homo sapiens, UniProt Q13490), entry CC[C@H](NC(=O)[C@H](C)NC)C(=O)N1CCC[C@H]1C(=O)N[C@@H]1CCCc2ccccc21
Completion: 2.34 µM

Prompt: Please state recorded Ki (tested on cIAP1-BIR2 (Homo sapiens, UniProt Q13490)) of CN[C@@H](C)C(=O)N[C@H](C(=O)N[C@@H](CCCCNC(=O)OCc1ccccc1)C(=O)N[C@@H]1CCCc2ccccc21)C(C)C
Completion: 3.31 µM

Prompt: GET /values?readout=Ki&system=cIAP1-BIR2 (Homo sapiens, UniProt Q13490)&item= CN[C@@H](C)C(=O)N[C@H](C(=O)N[C@@H](CO)C(=O)N[C@@H]1CCCc2ccccc21)C(C)C
Completion: 3.09 µM

Prompt: Short answer please: Ki, cIAP1-BIR2 (Homo sapiens, UniProt Q13490), entry CN[C@@H](C)C(=O)N[C@H](C(=O)N[C@@H](CCCN)C(=O)NNc1ccccc1)C(C)C
Completion: 3.82 µM

Prompt: What reported Ki corresponds to CC[C@H](C)[C@H](NC(=O)[C@H](C)NC)C(=O)N1CCC[C@H]1C(=O)N[C@@H]1CCCc2ccccc21 on cIAP1-BIR2 (Homo sapiens, UniProt Q13490)?
Completion: 1.11 µM

Prompt: Write down the reported Ki of CN[C@@H](C)C(=O)N[C@H](C(=O)N[C@@H](CCCN)C(=O)N[C@@H]1CCCc2ccccc21)C(C)C , test system: cIAP1-BIR2 (Homo sapiens, UniProt Q13490).
Completion: 1.47 µM

All values here come from paper PMC5019375.
